- Target entity: tyrosinase from mushroom (Agaricus bisporus)
- Sequence (C7FF04 2-392): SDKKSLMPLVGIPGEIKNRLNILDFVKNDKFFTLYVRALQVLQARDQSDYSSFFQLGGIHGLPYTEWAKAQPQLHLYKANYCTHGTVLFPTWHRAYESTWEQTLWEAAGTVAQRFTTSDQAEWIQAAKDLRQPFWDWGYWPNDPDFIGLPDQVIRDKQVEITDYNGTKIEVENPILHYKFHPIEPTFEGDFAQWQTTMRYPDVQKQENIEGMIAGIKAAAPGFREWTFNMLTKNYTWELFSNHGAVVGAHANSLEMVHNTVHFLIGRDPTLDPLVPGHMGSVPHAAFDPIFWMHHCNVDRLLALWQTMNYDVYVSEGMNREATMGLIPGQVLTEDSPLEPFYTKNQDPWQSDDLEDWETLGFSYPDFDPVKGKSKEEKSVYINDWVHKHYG
- Sequence (G1K3P4 entry or part of it, further chain): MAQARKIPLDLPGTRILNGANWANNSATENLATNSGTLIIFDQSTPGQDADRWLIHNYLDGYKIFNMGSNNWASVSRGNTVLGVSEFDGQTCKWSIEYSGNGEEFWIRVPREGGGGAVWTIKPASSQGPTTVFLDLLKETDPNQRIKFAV
- Assay method text: Inhibition of commercial mushroom tyrosinase, substrate L-DOPA
- Type: biochemical
- Condition notes: 500 μM; read-out: Tyrosinase inhibition with L-DOPA [%]
Experimental readout: inhibition at 500 µM (%)

Previously resolved entries follow.
Compound: O=C(/C=C/c1ccc(Cl)cc1)NCCO
Target entity: tyrosinase from mushroom (Agaricus bisporus)
inhibition at 500 µM / %: 55.8
--
Compound: O=C(/C=C/c1ccc(Cl)cc1Cl)NCCCO
Target entity: tyrosinase from mushroom (Agaricus bisporus)
inhibition at 500 µM / %: 18.6
--
Compound: CCC(O)CNC(=O)/C=C/c1ccc(Cl)cc1Cl (centres unmarked)
Target entity: tyrosinase from mushroom (Agaricus bisporus)
inhibition at 500 µM / %: 5.8

P = O=C(/C=C/c1ccccc1)NCCCO
Q = CCC(CO)NC(=O)/C=C/c1ccc(Cl)cc1Cl (centres unmarked)
Query :: Lowest inhibition at 500 µM? choose P or Q Mark your answer with the label of the selected entry.
Result :: Q

A = CCC(CO)NC(=O)/C=C/c1ccc(Cl)cc1 (centres unmarked)
B = Cc1ccc(/C=C/C(=O)NC(C)CO)cc1 (centres unmarked)
Query :: Which one would you say has the larger inhibition at 500 µM value: A , or B ? Give the label under which the chosen entry appears.
Result :: A

----------
Catalogue of LDH, Keratinocytes (HaCaT) values
- Tested on: keratinocytes (HaCaT)
- Assay method text: Safety, LDH test in keratinocytes
- Assay type: cell-based
- Condition notes: 200 μM, 48 hours, vs Triton X-100

Take a look at these entries with their results.
Structure smiles string: Cc1ccc(/C=C/C(=O)NCCCCCO)cc1
Experimental readout: LDH, Keratinocytes (HaCaT)
Result: 10.18 percentage of positive control
--
Structure smiles string: O=C(/C=C/c1ccc(Cl)cc1)NCCO
Experimental readout: LDH, Keratinocytes (HaCaT)
Result: 6.50 percentage of positive control
--
Structure smiles string: O=C(/C=C/c1ccccc1)NCCCCCO
Experimental readout: LDH, Keratinocytes (HaCaT)
Result: 6.38 percentage of positive control
--
Structure smiles string: O=C(/C=C/c1ccc(Cl)cc1)NCCCO
Experimental readout: LDH, Keratinocytes (HaCaT)
Result: 17.03 percentage of positive control

Turning now to a further compound:
Query :: Query LDH, Keratinocytes (HaCaT) on keratinocytes (HaCaT) for O=C(/C=C/c1ccc(Cl)cc1)NCCCCCO
Result :: 6.49 percentage of positive control

----------
# MTT, Fibroblasts (BJ) annotations
- Test system: fibroblasts (BJ)
- Assay method text: Safety, MTT test in fibroblasts
- Type: cell-based
- Condition notes: 150 μM, 48 hours

Query :: Data request, read-out MTT, Fibroblasts (BJ), for O=C(/C=C/c1ccc(Cl)cc1)NCCCO
Result :: 94.85 ± 3.51 % of solvent control

Query :: Requested field: MTT, Fibroblasts (BJ). Item: Cc1ccc(/C=C/C(=O)NCCCCCO)cc1
Result :: 101.92 ± 2.88 % of solvent control

----------
- System: S. typhimurium TA98
- Assay method text: Ames microplate test, TA98
- Type: cell-based, Salmonella typhimurium
- Condition notes: 1.0 mM, without S9
Reported Increase in the number of yellow wells compared to the reference level, TA98 is given for each of the following compounds.
Enter the number alone.

Compound: O=C(/C=C/c1ccccc1)NCCCCCCO [H-425/21]
Recorded number: 0.54

Compound: O=C(/C=C/c1ccc(Cl)cc1)NCCCCCO [Compound A-111]
Recorded number: 0.44

Compound: O=C(/C=C/c1ccccc1)NCCCCCO [Compound A-133]
Recorded number: 0.33

Compound: CCC(O)CNC(=O)/C=C/c1ccc(Cl)cc1 (stereo not drawn) [Compound A-67]
Recorded number: 1.07

Query :: Given the entry CC(CO)NC(=O)/C=C/c1ccc(Cl)cc1 (stereo not drawn) [Compound A-102] , what Increase in the number of yellow wells compared to the reference level, TA98 was observed with S. typhimurium TA98?
Result :: 0.24

Query :: API: value(readout= Increase in the number of yellow wells compared to the reference level, TA98, system= S. typhimurium TA98, query= Cc1ccc(/C=C/C(=O)NCCCCCO)cc1 [H-415/21] )
Result :: 0.24
